Molecular target: Ha006a (Helicoverpa armigera)
Sequence (D5G3E0 25-548): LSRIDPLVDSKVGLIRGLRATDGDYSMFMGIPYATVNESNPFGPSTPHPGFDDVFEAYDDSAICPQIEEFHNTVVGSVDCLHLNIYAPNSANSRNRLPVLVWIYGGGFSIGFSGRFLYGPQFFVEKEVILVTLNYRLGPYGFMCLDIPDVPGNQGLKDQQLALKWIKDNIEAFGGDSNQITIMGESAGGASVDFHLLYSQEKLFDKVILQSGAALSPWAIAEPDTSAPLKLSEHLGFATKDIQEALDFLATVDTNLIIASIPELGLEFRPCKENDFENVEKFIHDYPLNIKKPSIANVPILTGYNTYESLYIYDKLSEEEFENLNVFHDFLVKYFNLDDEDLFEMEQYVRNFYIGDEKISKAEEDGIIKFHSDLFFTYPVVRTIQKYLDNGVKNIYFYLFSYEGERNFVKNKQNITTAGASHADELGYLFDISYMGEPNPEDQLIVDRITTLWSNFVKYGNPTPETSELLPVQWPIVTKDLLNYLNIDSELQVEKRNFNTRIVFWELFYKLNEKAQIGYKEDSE
Experiment: Differential scanning calorimetry of Ha006a-ligand complexes
Assay type: binding
Conditions: DSC, second transition (Tm2)
observation_type: ΔHv/ΔH
Reply: number alone, nothing else.

GET /values?item= COc1cc(OC)c2c(=O)cc(-c3ccc(OC)c(OC)c3)oc2c1 [3′,4′,5,7-Tetramethoxyflavone] &system= Ha006a (Helicoverpa armigera) returns ΔHv/ΔH: 0.04

***
GET /values?item= O=C(/C=C/C=C/c1ccc2c(c1)OCO2)N1CCCCC1 [Piperine] &system= Ha006a (Helicoverpa armigera) returns ΔHv/ΔH: 0.20

GET /values?item= O=P(Oc1ccccc1)(Oc1ccccc1)Oc1ccccc1 [Triphenyl phosphate, reference compound] &system= Ha006a (Helicoverpa armigera) returns ΔHv/ΔH: 0.05

GET /values?item= CN1CCc2cc3c(cc2C(=O)Cc2ccc4c(c2C1)OCO4)OCO3 [Protopine] &system= Ha006a (Helicoverpa armigera) returns ΔHv/ΔH: 0.02

---

Biological target: Ha006a (Helicoverpa armigera, UniProt D5G3E0)
Sequence (D5G3E0 25-548): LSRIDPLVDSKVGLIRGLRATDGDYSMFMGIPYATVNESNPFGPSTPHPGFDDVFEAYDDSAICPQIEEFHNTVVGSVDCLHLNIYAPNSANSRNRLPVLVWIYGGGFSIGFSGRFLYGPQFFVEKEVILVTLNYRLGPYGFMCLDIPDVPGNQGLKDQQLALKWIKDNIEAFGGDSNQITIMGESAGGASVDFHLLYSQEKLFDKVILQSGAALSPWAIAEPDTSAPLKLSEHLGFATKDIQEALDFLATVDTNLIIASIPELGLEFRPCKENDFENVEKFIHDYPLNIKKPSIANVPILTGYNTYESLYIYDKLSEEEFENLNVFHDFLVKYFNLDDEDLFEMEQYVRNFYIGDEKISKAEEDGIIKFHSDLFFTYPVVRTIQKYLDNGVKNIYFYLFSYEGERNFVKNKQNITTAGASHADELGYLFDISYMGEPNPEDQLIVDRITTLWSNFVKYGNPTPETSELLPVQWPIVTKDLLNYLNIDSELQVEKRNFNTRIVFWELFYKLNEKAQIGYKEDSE
Experiment: Differential scanning calorimetry of Ha006a-ligand complexes
Type: binding
Details: DSC, first transition (Tm1)
Parameter: ΔHv/ΔH. Scope: all listed entries.
Reply: number alone, nothing else.

GET /values?item= "COc1cc(OC)c2c(=O)cc(-c3ccc(OC)c(OC)c3)oc2c1" &system= Ha006a (Helicoverpa armigera, UniProt D5G3E0) returns ΔHv/ΔH: 0.06

GET /values?item= "CN1CCc2cc3c(cc2C(=O)Cc2ccc4c(c2C1)OCO4)OCO3" &system= Ha006a (Helicoverpa armigera, UniProt D5G3E0) returns ΔHv/ΔH: 0.07

GET /values?item= "O=C(/C=C/C=C/c1ccc2c(c1)OCO2)N1CCCCC1" &system= Ha006a (Helicoverpa armigera, UniProt D5G3E0) returns ΔHv/ΔH: 0.20

// next entry
GET /values?item= O=P(Oc1ccccc1)(Oc1ccccc1)Oc1ccccc1 [Triphenyl phosphate, reference compound] &system= Ha006a (Helicoverpa armigera, UniProt D5G3E0) returns ΔHv/ΔH: 0.08
